System: Plasmodium berghei
Assay details: Screen against P. berghei liver stage (PbLuc), transformed with Luciferase, at 10uM
Format: functional, HepG2
Condition parameters: tested at 10 uM
The campaign covered roughly 69,000 compounds. About 8,600 (12%) showed an effect of 50% or more. Only a selection was taken, and strong results are over-represented in it overall.
Recorded metric: INHIBITION (%)
Please state the figure in %; there is no need to write the unit.

Compound	INHIBITION / %
Cc1cc(Nc2cnccn2)cc(C2CCCNC2)n1 (stereo unspecified)	19.5

Shifting focus to the compound that follows.
(Q) Can you share its INHIBITION? I mean this compound: CCCS(=O)(=O)N1CCN(c2ccc3nnc(CC)n3n2)CC1
(A) -37.2

====

Tested on: Plasmodium berghei
Assay details: Screen against P. berghei liver stage (PbLuc), transformed with Luciferase, at 10uM
Type: functional, HepG2
Condition parameters: tested at 10 uM
Among all 69,000 compounds or so, about 8,600 (12%) showed an effect of 50% or more. This excerpt belongs to a sample that is enriched for strong results.
The entries below are paired with their reported INHIBITION.
Express it in %; write the number only.

Compound	Result units	Value measured
COc1ccc(Br)c(C(=O)NCC2CC2)c1	%	90.2
CS(=O)(=O)c1cccc(C(N)c2ccc(Cl)cc2)c1 (stereo unspecified)	%	-53.2
COc1ccc(Br)c(C(=O)NCC2CCN(S(=O)(=O)C3CC3)CC2)c1	%	38.5
Cc1nc(CO[C@H]2CN(Cc3cccs3)[C@@H]3COC[C@H]23)cs1	%	18.2
COc1ccc(C(=O)NCC2CCCN(C3CCOCC3)C2)c(O)c1 (stereo unspecified)	%	57.4

(Q) What INHIBITION value was documented for this compound, O=c1c2cn[nH]c2nc(SCCN2CCOCC2)n1-c1ccccc1 ?
(A) 21.5

====

Tested on: Plasmodium berghei
Assay details: Screen against P. berghei liver stage (PbLuc), transformed with Luciferase, at 10uM
Format: functional, HepG2
Condition parameters: tested at 10 uM
The campaign covered roughly 69,000 compounds. About 8,600 (12%) showed an effect of 50% or more. Shown is part of a subset that was picked to be rich in strong results.
// boundary case: INHIBITION equal to 10% maps to 0 (no); strictly smaller maps to 1 (yes)

Completed entries (count: 10):
Compound	Classification
CS(=O)(=O)NC1CC2(CCN(CCF)CC2)Oc2ccccc21 (configuration not stated)	0 (no)
CCn1cnnc1C1CCN(C(=O)c2ccoc2C)CC1	1 (yes)
CC(=O)N1CCN(C(=O)NC(C)C)CC2(CC(=O)N(C)C2)C1 (configuration not stated)	1 (yes)
CCN1CC(COC(=O)c2cc(C)nn2CC)CC1=O (configuration not stated)	0 (no)
O=S(=O)(c1ccccc1Cl)N1CCCC(c2ncc[nH]2)C1 (configuration not stated)	0 (no)
Cc1ccc(S(=O)(=O)N(CC(N)=O)CC(C)C)cc1C	1 (yes)
CC(=O)N1CCN(C(=O)NC(C)C)CC2(CNC(=O)C2)C1 (configuration not stated)	1 (yes)
Nc1nccnc1C1CN(C(=O)c2ccnnc2)CCO1 (configuration not stated)	0 (no)
COC(=O)CC(c1cccnc1)c1oc(C)cc(=O)c1O (configuration not stated)	1 (yes)
Cn1nnnc1SCCC(=O)NCC1Cc2ccccc2O1 (configuration not stated)	1 (yes)

Let us examine a further case.
(Q) # TODO verify INHIBITION < 10% strictly for this compound: CCc1cnc(CNC(=O)N2CCCC(c3ncc[nH]3)C2)s1 (configuration not stated)
(A) 0 (no)
